Biological target: thrombin (endogenous, clotting assay in plasma or whole blood) (Homo sapiens, UniProt P00734;P00734 P00734:328-363,P00734:364-622)
Test: inhibition; PT at 10 uM
Reported Property: activity (s)
Entry rule: numbers only, all in s.

The examples below pair each entry with its known result.
Binder	Unit Descriptor	activity
ACTGCATAGGTTGGGTAGGGTGGTGGCAGT (ssDNA) [ARC2169.7]	s	300
ACTGCATAGGTTGGGTAGGGTGGTTGCAGT (ssDNA) [ARC2169.6]	s	300
ACTGCCTAGGATGGGTAGGGTGGTGGCAGT (ssDNA) [ARC2169.1]	s	300
ACTGCCTAGGGTGGGTAGGGTGGTGGCAGT (ssDNA) [ARC2169.2]	s	300
ACTGCATAGGTTGGGTAGGGTGGTGCAGT (ssDNA) [ARC2169.8]	s	28.7

Now look at this entry.
query: Quick one: activity of ACTGCCTAGGTTGGGTAGGATGGTGGCAGT (ssDNA) [ARC2169.4] ?
result: 53.8

Data credit: patent US20090221680
